# protein stability index listing for each entry below
system: Saccharomyces cerevisiae; assay: protein stability index of tFT-peptide fusion (C-terminal peptide) (PSI (0-1 scale)); higher = more stable (slower turnover); conditions: genetic background: doa10 deletion; temperature: 30 C;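 also: PSI is a weighted mean of sequencing reads over stability bins, variants kept only with over 10 reads, mCherry proximal and sfGFP distal, peptide attached via GGGS linker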
recordedEndpoint: protein stability index

> print(dat)
    sequencetext         recordedendpoint  resultnumber
 1  RCTFSFSFPFVL  protein stability index           0.6
 2  FPVSSRSFSFIP  protein stability index         0.627
 3  FILCGFSVVLIG  protein stability index         0.162
 4  IKCVPLVWRLTV  protein stability index         0.109
 5  RLICFFSMYLRF  protein stability index         0.614
 6  PAMPTEPKSSSG  protein stability index         0.644
 7  VRNYWKYVVIFP  protein stability index         0.578
 8  FPPRLIPLLARS  protein stability index          0.24
 9  SLSFLRPLLLIF  protein stability index         0.131
10  SSFDFVVSLCIY  protein stability index         0.347
11  SPRGVVIAFLVC  protein stability index          0.11
12  CTLVFLFFDLCS  protein stability index         0.263
13  VFLRCRSLSMRV  protein stability index         0.409
14  PLLLLLPSLLLV  protein stability index         0.149
15  FFCCVLFSIVVY  protein stability index         0.103
16  WSFPFFLLPFLF  protein stability index          0.25
17  SFRIWLFRFFFV  protein stability index         0.364
18  CLVFGFLFFIVI  protein stability index         0.435
19  RLLFFVFLSSRF  protein stability index         0.489
20  LASLSRPFRAKF  protein stability index         0.828
21  INHVIHAKLRFS  protein stability index          0.11
22  VILYCSNVAVCS  protein stability index         0.212
23  LFHFPSWIFCLL  protein stability index         0.244
24  ILCYVWLVFSGF  protein stability index         0.194
25  FVFLVLGPYAMF  protein stability index         0.346
26  APLPPPPASVPP  protein stability index          0.65
27  VWFCCLFFCFFV  protein stability index         0.428
28  GFIRVRHLRSLC  protein stability index         0.121
29  RHAHPLTAQLPL  protein stability index         0.694
30  IFLCRNGAVFIC  protein stability index        0.0808
31  DYARAWRTEVVC  protein stability index         0.288
32  VNTLCCVFRCNL  protein stability index         0.825
33  PLPSRLRRFVPV  protein stability index         0.613
34  LLVLRQYFFFFV  protein stability index         0.238
35  GRGVRLRVRLLL  protein stability index         0.185
36  PPVAYVCHLYVT  protein stability index         0.309
37  FHICTQLIFITC  protein stability index         0.114

* * *

# protein stability index listing for each entry below
tested on: Saccharomyces cerevisiae; experiment: protein stability index of tFT-peptide fusion (C-terminal peptide) (PSI (0-1 scale)); higher = more stable (slower turnover); details: genetic background: wild type; temperature: 30 C
recordedEndpoint: protein stability index

> print(dat)
    sequencetext               assaysystem         recordedendpoint  resultnumber
 1  GWARQAADGWGG  Saccharomyces cerevisiae  protein stability index         0.709
 2  LPPPPRPLPPSP  Saccharomyces cerevisiae  protein stability index         0.696
 3  GRVETIEFLFLR  Saccharomyces cerevisiae  protein stability index         0.464
 4  AGGSGGEAGSEG  Saccharomyces cerevisiae  protein stability index         0.655
 5  DLVNTVCTVLDN  Saccharomyces cerevisiae  protein stability index         0.684
 6  RRGLRVTETPVR  Saccharomyces cerevisiae  protein stability index         0.772
 7  SLGLALSLRSSV  Saccharomyces cerevisiae  protein stability index         0.636
 8  PGVAGSLSLLRR  Saccharomyces cerevisiae  protein stability index         0.722
 9  PPHAPPPPPHVP  Saccharomyces cerevisiae  protein stability index         0.713
10  NKWKASRKYRKR  Saccharomyces cerevisiae  protein stability index         0.723
11  VSCFIVSFWVFL  Saccharomyces cerevisiae  protein stability index         0.471
12  SPRGVVIAFLVC  Saccharomyces cerevisiae  protein stability index         0.129
13  GVFIGWAGYKGT  Saccharomyces cerevisiae  protein stability index         0.661
14  ASLLSCRLPCLC  Saccharomyces cerevisiae  protein stability index         0.518
15  VVLPLCRVPSHW  Saccharomyces cerevisiae  protein stability index         0.688
16  AWRGFVALSFSR  Saccharomyces cerevisiae  protein stability index         0.695
17  PSLPWSGPPVPC  Saccharomyces cerevisiae  protein stability index         0.664
18  LRLDFPPARPHS  Saccharomyces cerevisiae  protein stability index         0.697
19  VLVVVAFVALPR  Saccharomyces cerevisiae  protein stability index         0.372
20  EASSRITFGLII  Saccharomyces cerevisiae  protein stability index         0.698
21  VGRESVVGEQFV  Saccharomyces cerevisiae  protein stability index         0.625
22  RRFPYGPFDFSI  Saccharomyces cerevisiae  protein stability index         0.664
23  TGIGCRFIWCSK  Saccharomyces cerevisiae  protein stability index          0.65
24  NFTPRKHARQRP  Saccharomyces cerevisiae  protein stability index         0.736
25  VGELGVFAPGGK  Saccharomyces cerevisiae  protein stability index           0.5
26  FVALCHCVRISR  Saccharomyces cerevisiae  protein stability index         0.697
27  LTEFVVFFFFVF  Saccharomyces cerevisiae  protein stability index         0.517
28  PPPRRAPLSPSV  Saccharomyces cerevisiae  protein stability index         0.669
29  TNKNNKKKKEKI  Saccharomyces cerevisiae  protein stability index         0.743
30  LSEFFLSAFLSC  Saccharomyces cerevisiae  protein stability index         0.712
31  EIGWEGLEGRGG  Saccharomyces cerevisiae  protein stability index         0.756
32  CMLGVVRVLVWF  Saccharomyces cerevisiae  protein stability index         0.186
33  SRRVSVSTSWNP  Saccharomyces cerevisiae  protein stability index         0.718
34  PSPLRASPTAVF  Saccharomyces cerevisiae  protein stability index          0.62
35  VRRRRVPSEATR  Saccharomyces cerevisiae  protein stability index         0.667
36  SRSCCPGVRVRF  Saccharomyces cerevisiae  protein stability index         0.709
37  PPPISTLSSSPS  Saccharomyces cerevisiae  protein stability index         0.582
38  IGIGVAGERLGV  Saccharomyces cerevisiae  protein stability index         0.612
39  LHGDLLFSVYVL  Saccharomyces cerevisiae  protein stability index         0.597
40  CLWNFWVRFLLL  Saccharomyces cerevisiae  protein stability index         0.175
41  WNCRILGLVMRG  Saccharomyces cerevisiae  protein stability index         0.695
42  LSPTPSAPPCFG  Saccharomyces cerevisiae  protein stability index         0.601
43  NPPELPVTENNP  Saccharomyces cerevisiae  protein stability index         0.821
44  SFRLLCPPPPLP  Saccharomyces cerevisiae  protein stability index         0.681
45  WRVRFRLLAGFC  Saccharomyces cerevisiae  protein stability index         0.173
46  SAQSAGRQRLQK  Saccharomyces cerevisiae  protein stability index         0.695
47  IRGGSRLPFYSS  Saccharomyces cerevisiae  protein stability index         0.731
